# ASSAY_METHOD_TEXT: cytotoxicity, standard procedure (Mosmann)
# Assay type: cell-based
MEASURED_PROPERTY: CC50

The compound identified as CO[C@H]1C[C@@H]2CC[C@@H](C)[C@@](O)(O2)C(=O)C(=O)N2CCCC[C@H]2C(=O)O[C@H]([C@H](C)C[C@@H]2CC[C@@H](O)[C@H](OC)C2)CC(=O)[C@H](C)/C=C(\C)[C@@H](O)[C@@H](OC)C(=O)[C@H](C)C[C@H](C)/C=C/C=C/C=C/1C [rapamycin] registered its CC50 at > 3 mg/L

Numbers sourced from patent EP0638125B1.
